Tgt: human PAD4 (hPAD4) (Homo sapiens (Human), UniProt Q9UM07)
Sequence (Q9UM07 whole entry): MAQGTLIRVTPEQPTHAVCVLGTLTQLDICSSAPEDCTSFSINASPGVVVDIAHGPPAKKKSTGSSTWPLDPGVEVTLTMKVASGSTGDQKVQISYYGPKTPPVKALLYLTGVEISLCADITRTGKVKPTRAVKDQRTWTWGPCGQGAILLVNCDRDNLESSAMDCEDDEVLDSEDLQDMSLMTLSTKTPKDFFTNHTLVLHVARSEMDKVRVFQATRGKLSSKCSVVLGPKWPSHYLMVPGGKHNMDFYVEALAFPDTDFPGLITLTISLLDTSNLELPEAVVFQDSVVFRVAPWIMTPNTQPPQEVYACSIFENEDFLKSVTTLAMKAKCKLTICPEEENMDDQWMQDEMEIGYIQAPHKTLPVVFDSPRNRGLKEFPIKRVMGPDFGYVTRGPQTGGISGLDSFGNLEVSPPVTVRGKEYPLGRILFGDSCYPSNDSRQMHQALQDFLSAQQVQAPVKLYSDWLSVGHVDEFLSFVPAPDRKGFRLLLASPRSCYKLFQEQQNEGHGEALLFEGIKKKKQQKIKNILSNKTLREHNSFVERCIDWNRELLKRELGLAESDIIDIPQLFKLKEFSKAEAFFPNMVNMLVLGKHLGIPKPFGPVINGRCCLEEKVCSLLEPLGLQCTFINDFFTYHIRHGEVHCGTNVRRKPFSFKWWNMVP
Assay Procedure: RFMS Human PAD4 Functional Assay 1
Assay Conditions: RFMS assay 1; 5 nM hPAD4, 250 μM BAEE substrate, 50 μM calcium, 37° C.
Recorded Endpoint: IC50 (µM)

(a) COc1cc(C(=O)N2CCC[C@@H](N)C2)cn2nc(-c3cc4ccc(N5CCC(N(C)C(C)=O)CC5)cc4n3CC3CC3)c(C)c12 [Example 252]
(b) COC(=O)N1CCC(c2cccc3cc(-c4nn5cc(C(=O)N6CC7CCC6[C@@H]7N)ccc5c4C)n(CC4CC4)c23)CC1 (stereo partly drawn)
(c) CO[C@H](C)C(=O)N1CCC(c2cccc3cc(-c4nn5cc(C(=O)N6CCC[C@@H](N)C6)ccc5c4C)n(CC4CC4)c23)CC1
query: Order by IC50, ascending. // rank by listing labels in the order requested
result: b, c, a

(I) CO[C@H](C)C(=O)N1CC(c2cccc3cc(-c4nn5cc(C(=O)N6CCC[C@@H](N)C6)ccc5c4C)n(CC4CC4)c23)C1
(II) Cc1c(-c2cc3ccc(-c4ccc(O)c(F)c4)nc3n2CC2CC2)nn2cc(C(=O)N3CC4CCC3[C@@H]4N)cnc12 (stereo partly drawn)
query: Identify the entry with the larger IC50. Options: I and II Bench note: the answer is the label of the chosen record.
result: II
(II: 15 µM, I: 2.53 µM)

###

Tgt: UniProtKB Q9UM07
Assay Procedure: RFMS Human PAD4 Functional Assay 1
Assay Conditions: RFMS assay 1; 5 nM hPAD4, 250 μM BAEE substrate, 50 μM calcium, 37° C.
Protocol: RFMS Human PAD4 Functional Assay 1: Compounds were solubilized in 100% DMSO to achieve all) mM compound concentration. Compound stock solutions were stored at RT. A series of dilutions were prepared in DMSO and mixed 8 times with 20 μL mixing volume. Final top concentration of compound in the assay is 50 μM. […] MRM transition of product and internal standard were monitored at m/z 424.5 to 350.4 and m/z 293 to 247 respectively. […]
Recorded Endpoint: IC50 (nM)

Below, each entry is followed by its recorded IC50 result.
Molecule	Tgt	Recorded Endpoint	Unit	Result Value
Cc1c(-c2cc3cccc(C4CCN(C(=O)[C@H]5CCC[C@@H](O)C5)CC4)c3n2CC2CC2)nn2cc(C(=O)N3C[C@H](N)C[C@@H](F)C3)ccc12	UniProtKB Q9UM07	IC50	nM	70
COc1cc(C(=O)N2C[C@H](N)C[C@@H](F)C2)cn2nc(-c3cc4ccnc(OCCn5cnnc5)c4n3C)c(C)c12	UniProtKB Q9UM07	IC50	nM	450
COc1cc(-c2ccc3cc(-c4oc5cc(C(=O)N6CC7CCC6[C@@H]7N)ccc5c4C)n(CC4CC4)c3c2)ccn1 (stereo partly shown)	UniProtKB Q9UM07	IC50	nM	56
COc1cc(C(=O)N2CC3CCC2[C@@H]3N)cc2sc(-c3cc4ccc(-c5cccc(O)c5F)cc4n3CC3CC3)c(C)c12 (stereo partly shown)	UniProtKB Q9UM07	IC50	nM	1500
Cc1c(-c2cc3ccc(-c4cccc(O)c4F)cc3n2CC2CC2)nn2cc(C(=O)N3C[C@H](N)C[C@@H](F)C3)ccc12	UniProtKB Q9UM07	IC50	nM	672

(a) COC(=O)N1CCC(c2cccc3cc(-c4nn5cc(C(=O)N6C[C@H](N)C[C@@H](F)C6)ccc5c4C)n(CC4CC4)c23)CC1
(b) Cc1c(-c2cc3ccc(-c4ccc(O)c(F)c4)nc3n2CC2CC2)nn2cc(C(=O)N3CC4CCC3[C@@H]4N)cc(F)c12 (stereo partly shown)
query: Which item exceeds the other in IC50, a or b ? In your reply, give the label of the chosen option.
result: b
(b: 326 nM, a: 180 nM)

###

Tgt: human PAD4 (hPAD4) (Homo sapiens (Human), UniProt Q9UM07)
Assay Procedure: RFMS Human PAD4 Functional Assay 1
Assay Conditions: RFMS assay 1; 5 nM hPAD4, 250 μM BAEE substrate, 50 μM calcium, 37° C.
Recorded Endpoint: IC50 (nM)

Field: example entries. Status: answers known.
Compound	Unit	IC50
Cc1c(-c2cc3cccc(C4CCN(C(=O)[C@@H](C)O)CC4)c3n2CC2CC2)nn2cc(C(=O)N3CCC[C@@H](N)C3)ccc12	nM	90
Cc1c(-c2ccc3cc(-c4nn5cc(C(=O)N6C[C@H](N)C[C@@H](F)C6)ccc5c4C)n(CC4CC4)c3c2)cc(F)c2[nH]c(=O)ccc12	nM	120
Cc1c(-c2cc3ccc(-c4ccc(N5CCNC5=O)cc4)cc3n2CC2CC2)nn2cc(C(=O)N3CC4CCC3[C@@H]4N)ccc12 (stereo partly drawn)	nM	120
COc1cc(-c2ccc3cc(-c4nn5cc(C(=O)N6CC7CCC6[C@@H]7N)cc(F)c5c4C)n(CC4CC4)c3n2)c(F)cn1 (stereo partly drawn)	nM	101
CO[C@@H](C)C(=O)N1CCC(c2cccc3cc(-c4nn5cc(C(=O)N6CCC[C@@H](N)C6)cc(F)c5c4C)n(CC4CC4)c23)CC1	nM	80

(1) Cc1c(-c2cc3cccc(C4CN(C(=O)[C@H]5CC[C@H](O)CC5)C4)c3n2CC2CC2)nn2cc(C(=O)N3C[C@H](N)C[C@@H](F)C3)ccc12
(2) COCC(=O)N1CCC(c2cccc3cc(-c4nn5cc(C(=O)N6C[C@H](N)C[C@@H](F)C6)ccc5c4C)n(CC4CC4)c23)CC1
query: Return label of the item with the larger IC50. Candidates: 1 , 2 . The response must carry the label of the picked entry.
result: 2

(a) COc1cc(C(=O)N2CC3CCC2[C@@H]3N)cc2sc(-c3cc4cccnc4n3CC3CC3)c(C)c12 (stereo partly drawn)
(b) Cc1c(-c2cc3ccc(-c4ccc5[nH]ncc5c4)nc3n2CC2CC2)nn2cc(C(=O)N3C[C@H](N)C[C@@H](F)C3)ccc12
query: From the items above, decide which of a and b has the lower IC50 reading. # respond with the chosen item's label
result: a
